# Tested on: T-47D breast
# ASSAY: NCI-60 one-dose screen, 48 h (100 = growth as untreated, 0 = no growth, -100 = all killed)
# APPLIED CONDITIONS: 10 µM
This is part of a sample that, as a whole, favours compounds with a hit. Of some 83,000 tested, about 20% had one in any assay.

MOLECULE	TARGET	UNIT OF MEASUREMENT	growth
CCc1nc(N)nc(N)c1-c1ccc(Cl)cc1	T-47D breast	%	100
CC(C)(C)n1nc(C2CC2)c(Br)c1NC(=O)c1ccccc1F	T-47D breast	%	108
CCCCC(=O)c1ccc(OC)cc1	T-47D breast	%	110
O=C(Nc1ccccc1)OCCc1ccccc1	T-47D breast	%	104
CCCCNC1(C#N)CCN(Cc2ccccc2)CC1	T-47D breast	%	17.8
O=c1cc(-c2ccccc2)[nH]c(=S)[nH]1	T-47D breast	%	107
COc1cc(C(=O)N/N=C/c2cccc([N+](=O)[O-])c2)cc(OC)c1OC	T-47D breast	%	51.9
O=[N+]([O-])c1cccc2nsnc12	T-47D breast	%	103
Cc1c(O)cccc1O	T-47D breast	%	98.2
CCNCCCCNCCCCNCCCCNCCCCNCC	T-47D breast	%	72.2
OCCN1CCOCC1	T-47D breast	%	106
CCCCCCCO	T-47D breast	%	104
CC1=NN(c2ccccc2)C(=O)/C1=C\N1CC(=O)NC1=S	T-47D breast	%	97.1
COCCCC/C(=N\OCCN)c1ccc(C(F)(F)F)cc1	T-47D breast	%	86.4
CCOC(=O)c1ccc(Nc2sc(C(=O)c3cccc([N+](=O)[O-])c3)c(N)c2C#N)cc1	T-47D breast	%	48
C=CC[N+](C)(C)C	T-47D breast	%	103
CN(C)c1ccc(CNC(C(=O)c2ccccc2)c2ccccc2)cc1 (centres undefined)	T-47D breast	%	98.9
O=[N+]([O-])c1ccccc1N=Nc1ccc(O)cc1O	T-47D breast	%	104
CCOC(=O)C1OC1c1ccccc1 (centres undefined)	T-47D breast	%	98.8

###

# Test system: MALME-3M melanoma
# ASSAY: NCI-60 one-dose screen, 48 h (100 = growth as untreated, 0 = no growth, -100 = all killed)
# APPLIED CONDITIONS: 10 µM
Compounds without any hit were thinned out: in the full panel of roughly 83,000, 20% have a hit.

MOLECULE	growth, %
O=C(Nc1cc(-c2ccccc2)[nH]n1)c1ccc(Cl)cc1	92.6
O=C1OC(c2ccc(F)cc2)CC1CN1CCOCC1 (centres undefined)	95.6
CC(C)COC(=O)COC(=O)OCCOCCOC(=O)OCC(=O)OCC(C)C	104
COc1ccc(C(=O)C(Br)C(Br)C(=O)O)cc1 (centres undefined)	109
Cc1ccc(C(=O)c2ccccc2)c(C)c1	120
CCOC(=O)c1cc(/C=C/c2ccc(Cl)cc2Cl)on1	69.6
O=C1Cc2ccccc2C(=O)O1	122
COc1ccc(C2OC(N)=C(O)C2=O)cc1OC (centres undefined)	95.5
COc1ccc(OC)c(/C=C2\CCc3ccccc3C2=O)c1	63.4
COc1ccc(-c2cc3c(nn2)-c2ccccc2C3=O)cc1	-21.1
O=c1cc2oc3cc(O)c(O)cc3c(-c3ccccc3O)c-2cc1O	105
CC1(C)N=C(N)N=C(N)N1c1cccc(Br)c1	68.9
COc1ccccc1N1CCN(C(=S)Nc2ccccc2)CC1	97.3
COc1cc2cc(c1Cl)N(C)C(=O)C[C@H](OC(=O)[C@H](C)N(C)C(C)=O)[C@]1(C)O[C@H]1[C@H](C)[C@@H]1C[C@@](O)(NC(=O)O1)[C@H](OC)C=C/C=C(\C)C2	33.7

###

# Tested on: MDA-MB-231 breast
# ASSAY: NCI-60 one-dose screen, 48 h
# APPLIED CONDITIONS: 10 µM
About 83,000 compounds went through this panel and 20% of them were active in at least one assay; those are over-represented in the sample as a whole. Active and inactive are the calls of the source. How the source made its calls: active means growth percent below 10; inactive means the rest.
Outcome codes: Y for active, N for inactive

COMPOUND	CLASS ASSIGNMENT
COc1ccc(/C=C/c2cccc[n+]2C)cc1	N
CCOC(=O)c1[nH]c(C)c(C(C)=O)c1C	N
O=C(CS)Nc1ccc2ccccc2c1	N
CC1(O)CCCCC1O (configuration not stated)	N
Cc1ccc(C(=O)c2ccccc2)c(C)c1	N
CC1NC(=O)NC1CCCCCC(=O)O (configuration not stated)	N
Cc1ccc(Cl)cc1N1C(=O)CC(Sc2ccccc2N)C1=O (configuration not stated)	N
Cc1c(O)cccc1O	N
N#CCc1ccc([N+](=O)[O-])cc1	N
Clc1ccc(-c2n[nH]c3c2Cc2ccccc2-3)cc1Cl	N
Oc1ccccc1O	N
O=[N+]([O-])c1ccc(CO)cc1	N
OCC(O)C(O)C(O)C(O)/C=N/O (configuration not stated)	N
Cc1c(O)cnc2nn(-c3ccccc3)c(=N)n12	N
CCN(CC)c1ccc2nc3ccc(=[N+](CC)CC)cc-3oc2c1	Y
O=C(NN=C1CCCCC1)C(=O)NN=C1CCCCC1	N
Cc1cc(O)ccc1O	N

###

# Test system: HS 578T breast
# ASSAY: NCI-60 one-dose screen, 48 h
# APPLIED CONDITIONS: 10 µM
About 83,000 compounds went through this panel and 20% of them were active in at least one assay; those are over-represented in the sample as a whole. Calls of active or inactive are those of the source. Rule for the calls: active = growth percent below 10; inactive = the rest.
Outcome codes: 1.0 for active, 0.0 for inactive

COMPOUND	TARGET	CLASS ASSIGNMENT
CCOC(=O)c1cc(/C=C/c2ccc(Cl)cc2Cl)on1	HS 578T breast	0.0
O=C(/C(=N/O)c1ccccc1)c1ccccc1	HS 578T breast	0.0
O=c1cc(-c2ccccc2)nc2cc(-c3ccco3)[nH]n12	HS 578T breast	0.0
CC[N+](C)(CC)CCO	HS 578T breast	0.0
CN(C)C(C)(C)CC(C)(C)C	HS 578T breast	0.0
CCOC(=O)c1cc2cccc(OC)c2oc1=O	HS 578T breast	0.0
O=S(=O)(O)C(Nc1ccccc1)c1ccccc1 (stereo not given)	HS 578T breast	0.0
COc1cc(C2c3cc4c(cc3C3OC(=O)C2C3CO)OCO4)cc(OC)c1OC (stereo not given)	HS 578T breast	0.0
NCCC(=O)c1ccc(Cl)cc1	HS 578T breast	0.0
Cc1nc2ccccc2c(C(=O)O)c1O	HS 578T breast	0.0
CC1(C)/C(=C\CO)C2CCC1C2 (stereo not given)	HS 578T breast	0.0
CC1=CC(C)(C)NC(=S)N1c1ccc(S(=O)(=O)O)c2cccc(S(=O)(=O)O)c12	HS 578T breast	0.0
C#C[C@H]1CCCCCC1O (stereo not given in full)	HS 578T breast	0.0
CN(C)CCN(C)CC(C)(C)C(=O)/C=C/c1ccc(Cl)cc1	HS 578T breast	1.0
CN(C)c1ccc(CNC(C(=O)c2ccccc2)c2ccccc2)cc1 (stereo not given)	HS 578T breast	0.0
OCC1OC(OC2C(O)C(CO)OC2(CO)OC2OC(CO)C(O)C(O)C2O)C(O)C(O)C1O (stereo not given)	HS 578T breast	0.0
O=C1c2ccccc2C(=O)N1OCc1ccccc1	HS 578T breast	0.0
CCOC(=O)c1cc(/C=C/c2cccc(Cl)c2)on1	HS 578T breast	0.0
CC(C)CCOC(=O)c1ccccc1	HS 578T breast	0.0
CN(C)CCC(=O)c1ccc(O)cc1	HS 578T breast	0.0

###

# System: COLO 205 colon
# ASSAY: NCI-60 one-dose screen, 48 h
# APPLIED CONDITIONS: 10 µM
The panel holds about 83,000 compounds, 20% with a hit somewhere; the sample as a whole holds those more often. Active and inactive are the calls of the source. The calls were made as follows: active = growth percent below 10; inactive = the rest.
Outcome codes: class 1 for active, class 0 for inactive

MOLECULE	TARGET	CLASS ASSIGNMENT
C=C[Si](OC(C)=O)(OC(C)=O)OC(C)=O	COLO 205 colon	class 0
Cc1cc(C(O)(c2ccc(Nc3ccccc3)cc2)c2ccc(Nc3ccc(S(=O)(=O)O)cc3)cc2)ccc1N (stereo not given)	COLO 205 colon	class 1
CC(=O)OCC1=CC2OC(=O)C3=COC(OC4OC(CO)C(O)C(O)C4O)C1C32 (stereo not given)	COLO 205 colon	class 0
O=C(Nc1cc(-c2ccccc2)[nH]n1)c1ccc(Cl)cc1	COLO 205 colon	class 0
Cc1c(C(=O)O)c(=O)n(-c2ccccc2)n1C	COLO 205 colon	class 0

###

# Test system: SW-620 colon
# ASSAY: NCI-60 one-dose screen, 48 h (100 = growth as untreated, 0 = no growth, -100 = all killed)
# APPLIED CONDITIONS: 10 µM
This is part of a sample that, as a whole, favours compounds with a hit. Of some 83,000 tested, about 20% had one in any assay.

COMPOUND	UNIT OF MEASUREMENT	growth
COC(=O)c1ccccc1N(C)C	%	107
COCCCC/C(=N\OCCN)c1ccc(C(F)(F)F)cc1	%	97.1
CCCCOC(=O)c1ccc(C(C)C)cc1	%	111
CCOC(=O)c1cc(/C=C/c2ccc(Cl)cc2Cl)on1	%	-13.6
OCC(O)C(O)C(O)C(O)/C=N/O (configuration not stated)	%	99.6
COc1cc(C2NC(=O)C(C#N)=C(Nc3cccc(C)c3)S2)ccc1O (configuration not stated)	%	104
O=c1c2ccccc2c(Br)c(Br)c2ccccc12	%	29.8
COc1cc(/C=C(\C#N)C(=O)c2ccccc2)ccc1OCc1ccccc1	%	99.4
COc1cc(CN)ccc1O	%	103
COc1ccc(C)cc1OC	%	107
CC1(O)CCCCC1O (configuration not stated)	%	104
CCCCC1C(=O)N(c2ccccc2)N(c2ccccc2)C1=O	%	106
CCOc1ccc2[nH]c(=S)sc2c1	%	102
CCCNc1ccc(C2=NCCCN2)cc1	%	102
CCNc1nc2c(cnn2C)c(=O)[nH]1	%	97.9
CCOC(=O)c1cc(/C=C/c2cccc(Cl)c2)on1	%	84.2
COCCOC(=O)c1ccc(C(C)C)cc1	%	104
COc1cccc(COC(=O)Nc2ccccc2)c1OC	%	114
O=C1NC(=O)C2C(=O)NC(=O)C1C21CCc2ccccc21 (configuration not stated)	%	101
C=CC(=O)OCCCCCCCC	%	103
O=C(O)CCCc1ccccc1	%	111
CCN(CC)C(=O)/C=C(/C)c1ccccc1	%	102
Nc1ccc(N=Nc2ccc(O)cc2)c(N)n1	%	104
FC(F)(F)c1ccc2c(c1)N(CCCN1CCN(C3CC3)CC1)c1ccccc1S2	%	38.9
CC(=O)c1ccc(C)c(N)c1	%	101
CC1=C(/C=C/C(C)=C/C=C/C(C)=C/CO)C(C)(C)CCC1	%	109
O=C(Cc1ccc(OCc2ccccc2)cc1)NCc1ccc2c(c1)OCO2	%	28.1
CCOC(=O)c1[nH]c(C)c(C(C)=O)c1C	%	99.4
CCN(CC)CCCC(C)Nc1ccnc(/C=C/c2ccc(Cl)cc2)c1 (configuration not stated)	%	-53.2
C/C(=N/NC(N)=O)c1ccco1	%	109
NCCC(=O)c1ccc(Cl)cc1	%	102
CC1Cc2ccccc2O1 (configuration not stated)	%	111
Cc1cc(C(C)(C)C)cc(C)c1Br	%	104
O=C(O)[C@@H]1[C@H]2C[C@H]3c4[nH]c5ccccc5c4CCN3C[C@@H]2CC[C@@H]1O	%	100
CCOC(=O)c1ccc(Nc2sc(C(=O)c3cccc([N+](=O)[O-])c3)c(N)c2C#N)cc1	%	5.69
Cc1ccc(Cl)cc1N1C(=O)CC(Sc2ccccc2N)C1=O (configuration not stated)	%	108
C/C(=N\O)C1(O)CCCCC1	%	101
C=C[Si](OC(C)=O)(OC(C)=O)OC(C)=O	%	101
Cc1ccccc1C1N=C2Oc3ccccc3C=C2C(=O)N1 (configuration not stated)	%	40
COc1cc(CCN=Cc2ccccc2O)c([N+](=O)[O-])cc1OC	%	104
Cc1cc(=O)cc(C)n1-c1ccccc1	%	107
CCCOC(=O)C(O)c1ccccc1 (configuration not stated)	%	102
O=C(c1ccc(O)cc1)c1ccc(O)cc1	%	113
O=C1C=C(O)C(=O)C=C1O	%	104
O=[N+]([O-])c1cccc(C(F)(F)F)c1	%	92.6
O=S(=O)(O)c1ccc(O)c2ccccc12	%	97.3
CCN(CC)c1ccc2nc3ccc(=[N+](CC)CC)cc-3oc2c1	%	6.33
